- target_under_test: human glucagon receptor (human) (UniProt P47871)
- Sequence (P47871 26-477): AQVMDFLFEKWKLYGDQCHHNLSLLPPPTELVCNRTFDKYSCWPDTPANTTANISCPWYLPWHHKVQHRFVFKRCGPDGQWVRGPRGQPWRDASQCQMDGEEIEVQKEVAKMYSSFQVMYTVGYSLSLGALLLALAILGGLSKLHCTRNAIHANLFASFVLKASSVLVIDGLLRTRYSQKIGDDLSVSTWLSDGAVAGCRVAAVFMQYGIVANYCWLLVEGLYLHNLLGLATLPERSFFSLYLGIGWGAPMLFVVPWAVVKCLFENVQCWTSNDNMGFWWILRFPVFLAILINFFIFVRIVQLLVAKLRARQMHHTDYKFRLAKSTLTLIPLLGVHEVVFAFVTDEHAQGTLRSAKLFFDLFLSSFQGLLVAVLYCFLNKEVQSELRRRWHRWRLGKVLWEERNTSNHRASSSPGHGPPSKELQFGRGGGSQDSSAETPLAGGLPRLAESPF
- experimental_protocol: cell-based or functional assay
Starred links: 1 amine or outer side, 2 acyl side, 3 side chain; linkers in the order of their positions; H or OH if unused. Non-standard residues stand in square brackets, D forms with d. Groups on a side chain read outwards from the residue. No end group written: not given here. *: point of attachment. C20 diacid = O=C(O)CCCCCCCCCCCCCCCCCCC(=O)*; γGlu = O=C(O)[C@H](CCC(=O)[*:2])N[*:1]; AEEA = NCCOCCOCC(=O)O; Aib = CC(C)(N)C(=O)O
Classification by Relative cAMP EC50 follows these ranges: 1 (below 4 nM), 2 (4 nM to below 7 nM), 3 (7 nM or more)

binder	assigned_label
YXQGTFTSDFSXXLDKKAQXAFIEYLLEGGPSSGAPPPGGSEE (non-natural residues, C-terminal amide, acylated Lys with fatty diacid; synthetic construct; SITE 2: note = 2-Aminoisobutyric Acid; SITE 12: note = L-ornithine; SITE 13: note = alpha-methyl-leucine; SITE 17: note = Lysine is chemically modified through conjugation of the epsilon-amino group of the Lysine side chain with (gamma-Glu)2-CO-(CH2)16-CO2H; SITE 20: note = 2-Am) [Example 1047]	3
Y[Aib]QGTFTSDYSKLLDKK([AEEA-γGlu-C20 diacid])AQ[Aib]AFVQWLIEGGPSSGEPPPSEG-NH2 [Example 316]	2
YXQGTFTSDXSRXLDKKAQXAFIEYLIAGGESSGAPPPSGSEE (synthetic construct; SITE 2: note = 2-Aminoisobutyric Acid; SITE 10: note = 3-(4-Pyridyl)-L-alanine; SITE 13: note = alpha-methyl-leucine; SITE 17: note = Lysine is chemically modified through conjugation of the epsilon-amino group of the Lysine side chain with (gamma-Glu)2-CO-(CH2)16-CO2H; SITE 20:) [Example 965]	1
YXQGTXTSDYSILLDKKAQXAFIEYLEEGGPSSGAPPPS (not fully specified; synthetic construct; SITE 2: note = 2-Aminoisobutyric Acid; SITE 6: note = alpha-methyl-2-fluoro-L-phenylalanine; SITE 17: note = Lysine is chemically modified through conjugation of the epsilon-amino group of the Lysine side chain with (2-[2-(2-Amino-ethoxy)-ethoxy]-acetyl)-(gamma-Glu)-CO-(CH2) 16-) [Example 387]	1
YXQGTXTSDYXIXLDXKAQXXFIEYLLEGGPSSGAPPPS (synthetic construct; SITE 2: note = 2-Aminoisobutyric Acid; SITE 6: note = alpha-methyl-2-fluoro-L-phenylalanine; SITE 11: note = alpha-methyl-L-serine; SITE 13: note = alpha-methyl-leucine; SITE 16: note = L-ornithine; SITE 17: note = Lysine is chemically modified through conjugation of the epsilon) [Example 384]	2
YXQGTFTSDFSXXLDKKAQXAFIEYLLEXGPSSXAPPPSGS (Aib, Orn, αMeL, lipidated Lys, C-terminal amide; synthetic construct; SITE 2: note = 2-Aminoisobutyric Acid; SITE 12: note = L-ornithine; SITE 13: note = alpha-methyl-leucine; SITE 17: note = Lysine is chemically modified through conjugation of the epsilon-amino group of the Lysine side chain with (2-[2-(2-Amino-ethoxy)-ethoxy]-acetyl)-(gamma-Glu)) [Example 238]	1
